Target: T1, hKLRF2 (human, UniProt D3W0D1 1-207)
T1 construct: Overexpressed on HEK293 cells
T1 sequence: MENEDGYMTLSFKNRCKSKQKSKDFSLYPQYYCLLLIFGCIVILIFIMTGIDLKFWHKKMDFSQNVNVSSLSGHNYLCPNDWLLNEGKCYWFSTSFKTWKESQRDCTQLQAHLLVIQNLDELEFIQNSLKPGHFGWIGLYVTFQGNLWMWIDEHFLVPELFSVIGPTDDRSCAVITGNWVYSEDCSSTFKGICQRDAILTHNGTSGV
Assay: flow cytometry, HEK293 transfectants, 100 nM antibody;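 further: antibody applied at a saturating level and incubated with cells for 30 min at room temperature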
# note: exactly 0.05% is not below, so it is Not met; use Met for % of CD161 binding strictly under it

API: query returns whether the binder falls strictly under 0.05% in % of CD161 binding. Query: Ab6 (antibody, human IgG1, V domains shown, IgG purified from yeast culture) VH: EVQLLESGGGLVQPGGSLRLSCAASGFTFGQYAMSWVRQAPGKGLEWVSAISAAGGTTYYADSVKGRFTISRDNSKNTLYLQMNSLRAEDTAVYYCAKPLDSSQWADFDLWGRGTLVTVSS VL: DIQLTQSPSSVSASVGDRVTITCRASQGISSWLAWYQQKPGKAPKLLIYAASSLQSGVPSRFSGSGSGTDFTLTINSLQPEDFATYYCQQAWVLPITFGGGTKVEIK Met

Bench note: check whether Ab15 (antibody, human IgG1, V domains shown, IgG purified from yeast culture) VH: QVQLVESGGGLVKPGGSLRLSCAASGFTFPQYYMSWIRQAPGKGLEWVSYISPSGATIYYADSVKGRFTISRDNAKNSLYLQMNSLRAEDTAVYYCARSLMSTGTHLYFDLWGRGTLVTVSS VL: DIQLTQSPSSVSASVGDRVTITCRASQGISSWLAWYQQKPGKAPKLLIYAASSLQSGVPSRFSGSGSGTDFTLTISSLQPEDFATYYCQQVTSTPPYTFGGGTKVEIK shows % of CD161 binding below 0.05% Not met

Lab note: confirm whether the reported % of CD161 binding for this binder is below 0.05%, equality not counting. binder: Ab4 (antibody, human IgG1, V domains shown, IgG purified from yeast culture) VH: EVQLLESGGGLVQPGGSLRLSCAASGFTFERYAMSWVRQAPGKGLEWVSAISAVGGTTKYADSVKGRFTISRDNSKNTLYLQMNSLRAEDTAVYYCAKPLDSSLWADFDAWGRGTLVTVSS VL: DIQLTQSPSSVSASVGDRVTITCRASQGISSWLAWYQQKPGKAPKLLIYAASGLQSGVPSRFSGSGSGTDFTLTISSLQPEDFATYYCQQASYLPITFGGGTKVEIK Not met

For this binder, is % of CD161 binding lower than 0.05%? Ab11 (antibody, human IgG1, V domains shown, IgG purified from yeast culture) VH: EVQLLESGGGLVQPGGSLRLSCAASGFTFSQYAMSWVRQAPGKGLEWVSAISAAGGTTYYADSVKGRFTISRDNSKNTLYLQMNSLRAEDTAVYYCAKPLDSSQWADFDLWGRGTLVTVSS VL: DIQLTQSPSSVSASVGDRVTITCRASQGIYSWLAWYQQKPGKAPKLLIYAASSLQSGVPSRFSGSGSGTDFTLTISSLQPEDFATYYCQQASDLPITFGGGTKVEIK Met
